- METHOD: Microsomal stability, human liver microsomes (predicted hepatic clearance)
- PARTICULARS: predicted from in vitro microsomal stability data
Is Predicted Hepatic Clearance (Pred. Cl.) at least 5 mL/min/kg? Then class 1. If not, class 0.

Solved cases below.
COCCn1c(C2CCc3cc(-c4cccc(OCc5ccc(C#N)cc5F)n4)ccc32)nc2ccc(C(=O)O)cc21 (single isomer, unassigned) [Example 47]	class 0
COCCn1c(Cc2cc(F)c(-c3cccc(OCc4ccc(Cl)cc4F)n3)cc2F)nc2c(F)cc(C(=O)O)cc21	class 0
N#Cc1cc(F)c(COc2nccc(-c3cc(F)c(Cc4nc5c(F)cc(C(=O)O)cc5n4C[C@@H]4CCO4)cc3F)n2)cc1F	class 0
COCCn1c(Cc2ccc(-c3cccc(OCc4cc(C(F)(F)F)ccc4OC)n3)cc2F)nc2ccc(C(=O)O)cc21	class 0

Exam item: Would you say COCCn1c(Cc2c(F)cc(-c3cccnc3OC(C)c3ccc(Cl)cc3F)cc2F)nc2ccc(C(=O)O)cc21 (stereo not shown) shows Predicted Hepatic Clearance (Pred. Cl.) at minimum 5 mL/min/kg?
Marked response: class 1

Exam item: Given COCCn1c(Cc2ccc(-c3cccc(OCc4ccc(Cl)c5ccoc45)n3)cc2F)nc2ccc(C(=O)O)cc21 , state whether its Predicted Hepatic Clearance (Pred. Cl.) is at least 5 mL/min/kg.
Marked response: class 1

Exam item: Quick check: does N#Cc1ccc(COc2cccc(-c3cc(F)c(Cc4nc5ccc(C(=O)O)cc5n4CC4CC5CCN4CC5)cc3F)n2)c(F)c1 (stereo not shown) have Predicted Hepatic Clearance (Pred. Cl.) greater than or equal to 5 mL/min/kg?
Marked response: class 0

###

- METHOD: Microsomal stability, human liver microsomes (predicted hepatic clearance)
- PARTICULARS: predicted from in vitro microsomal stability data
Predicted Hepatic Clearance (Pred. Cl.) listing for selected compounds.
Unit mL/min/kg implied. Number only.

Consider the reported Predicted Hepatic Clearance (Pred. Cl.) for these compounds:
COCCn1c(Cc2cc(F)c(-c3cccc(OCc4ccc(Cl)nc4C)n3)cc2F)nc2ccc(C(=O)O)cc21 [Example 821]	2.67
COCCn1c(Cc2ccc(-c3cccc(OCc4ccc(C#Cc5cncnc5)cc4F)n3)cc2F)nc2ccc(C(=O)O)cc21 [Example 842]	1.83
N#Cc1cc(F)c(COc2cccc(-c3cc(F)c(Cc4nc5c(F)cc(C(=O)O)cc5n4Cc4ncco4)cc3F)n2)cc1F [Example 784]	1.83
CC1(Cn2c(Cc3cc(F)c(-c4cccc(OCc5ccc(C#N)cc5F)n4)cc3F)nc3ccc(C(=O)O)cc32)COC1 [Example 581]	6.33
COCCn1c(Cc2ccc(-c3cccc(OCc4ccc(C#N)cc4F)n3)nc2)nc2ccc(C(=O)O)cc21 [Example 43]	5.83

Please find the next compound below.
Exam item: # return recorded Predicted Hepatic Clearance (Pred. Cl.) for entry N#CCC1(Cn2c(Cc3cc(F)c(-c4cccc(OCc5ccc(C#N)cc5F)n4)cc3F)nc3ccc(C(=O)O)cc32)CC1 [Example 428]
Marked response: 8.92

###

- METHOD: Microsomal stability, human liver microsomes (predicted hepatic clearance)
- PARTICULARS: predicted from in vitro microsomal stability data
VALUE KIND: Predicted Hepatic Clearance (Pred. Cl.)

N#Cc1ccc(COc2nccc(-c3cc(F)c(Cc4nc5ccc(C(=O)O)cc5n4CC45CC(CO4)C5)cc3F)n2)c(F)c1	9.17 mL/min/kg
N#Cc1ccc(COc2nc(-c3ccc(Cc4nc5ccc(C(=O)O)cc5n4C[C@@H]4CCO4)c(F)c3)ccc2F)c(F)c1	<1.83 mL/min/kg

Exam item: Specify measured Predicted Hepatic Clearance (Pred. Cl.) for N#Cc1ccc(COc2cccc(-c3cc(F)c(Cc4nc5ccc(C(=O)O)cc5n4Cc4ccsn4)cc3F)n2)c(F)c1 .
Marked response: 5.83 mL/min/kg

Exam item: Given COCCn1c(Cc2ccc(-c3cccc(Oc4cccc5ccccc45)n3)cc2F)nc2ccc(C(=O)O)cc21 , respond with its Predicted Hepatic Clearance (Pred. Cl.).
Marked response: 7.33 mL/min/kg

###

- TGT: GLP-1R (Homo sapiens)
- METHOD: GLP-1R activation: cAMP increase in CHO cells stably expressing GLP-1R
- Assay type: cell-based
- PARTICULARS: cAMP increase, CHO cells stably expressing GLP-1R, 10 point dose response, 30 minutes incubation; read-out: EC50
Catalogue of compounds with associated EC50
Put your answer as a value accompanied by its unit after it.

Worked cases, answers included:
O=C(O)c1cc(F)c2nc(Cc3cc(F)c(-c4cccc(OCc5ccc(C(F)(F)F)cc5F)n4)cc3F)n(Cc3ncco3)c2c1 [Example 783]	0.11 nM
COC(Cn1c(Cc2ccc(-c3cccc(OCc4ccc(C#N)cc4F)n3)cc2F)nc2ccc(C(=O)O)cc21)C(=O)O (single isomer, unassigned) [Example 332]	120 nM
O=C(O)c1ccc2nc(Cc3ccc(-c4cccc(OCc5ccc(Cl)cc5F)n4)c(F)c3)n(CC3(CF)CC3)c2c1 [Example 535]	0.66 nM

Exam item: Quote EC50 reported for CO[C@@H]1CCCC[C@@H]1n1c(Cc2cc(F)c(-c3cccc(OCc4ccc(C#N)cc4F)n3)cc2F)nc2ccc(C(=O)O)cc21 [Example 725] please.
Marked response: 3.68 nM

Exam item: Identify EC50 associated with the compound COCCn1c(Cc2cc(F)c(-c3cccc(OCc4ccc(C#N)cn4)n3)cc2F)nc2ccc(C(=O)O)cc21 [Example 870]
Marked response: 17.6 nM

Exam item: Specify EC50 for COCCn1c(Cc2cc(F)c(-c3nc(OCc4ccc(C(F)F)cc4F)ccc3F)cc2F)nc2c(F)cc(C(=O)O)cc21 [Example 664] and stop.
Marked response: 0.67 nM

###

- TGT: GLP-1R (Homo sapiens)
- METHOD: GLP-1R activation: cAMP increase in CHO cells stably expressing GLP-1R
- Type: cell-based
- PARTICULARS: cAMP increase, CHO cells stably expressing GLP-1R, 10 point dose response, 30 minutes incubation; read-out: EC50
Let's look at some compounds and their measured log10(EC50).
// stored as log10 of EC50 expressed in nM

O=C(O)c1cc(F)c2nc(Cc3cc(F)c(-c4cccc(OCc5ccc(C(F)F)cc5F)n4)cc3F)n(CC34CC(CO3)C4)c2c1 [Example 669]	-0.55
COCCn1c(Cc2ccc(-c3cccc(OCc4ccc(C#N)cc4F)n3)cc2C2CC2)nc2ccc(C(=O)O)cc21 [Example 178]	1.51
COCCn1c(Cc2ccc(-c3cccc(OCc4ccc(C#N)cc4F)n3)c(C)c2)nc2ccc(C(=O)NS(=O)(=O)C3CC3)cc21 [Example 53]	3.00
CC(C#N)Cn1c(Cc2cc(F)c(-c3cccc(OCc4ccc(C#N)cc4F)n3)cc2F)nc2ccc(C(=O)O)cc21 (racemic) [Example 306]	0.27

Exam item: Please report the measured log10(EC50) for COC(C)(C)Cn1c(Cc2cc(F)c(-c3cccc(OCc4ccc(C#N)cc4F)n3)cc2F)nc2ccc(C(=O)O)cc21 [Example 586]
Marked response: -0.27

Exam item: Read off the recorded log10(EC50) for N#Cc1ccc(COc2cccc(-c3cc(F)c(Cc4nc5ccc(C(=O)O)cc5n4[C@H]4CC[C@@H]4O)cc3F)n2)c(F)c1 [Example 705]
Marked response: 1.86

Exam item: Tell me log10(EC50) reported for CCn1cncc1Cn1c(Cc2ccc(-c3cccc(OCc4ccc(C#N)cc4F)n3)cc2F)nc2ccc(C(=O)O)cc21 [Example 525]
Marked response: -0.22

Exam item: Provide only the value of recorded log10(EC50) for N#Cc1ccc(COc2cccc(-c3ccc(Cc4nc5ccc(C(=O)O)cc5n4CC4CC4)c(F)c3)n2)c(F)c1 [Example 389]
Marked response: 1.42

Exam item: Please report the measured log10(EC50) for COCCn1c(Cc2ccc(-c3cccc(OCc4ccc(C#N)cc4OCC(F)F)n3)cc2F)nc2ccc(C(=O)O)cc21 [Example 245]
Marked response: 2.15

###

- TGT: GLP-1R (Homo sapiens, UniProt P43220)
- Sequence (P43220 24-463): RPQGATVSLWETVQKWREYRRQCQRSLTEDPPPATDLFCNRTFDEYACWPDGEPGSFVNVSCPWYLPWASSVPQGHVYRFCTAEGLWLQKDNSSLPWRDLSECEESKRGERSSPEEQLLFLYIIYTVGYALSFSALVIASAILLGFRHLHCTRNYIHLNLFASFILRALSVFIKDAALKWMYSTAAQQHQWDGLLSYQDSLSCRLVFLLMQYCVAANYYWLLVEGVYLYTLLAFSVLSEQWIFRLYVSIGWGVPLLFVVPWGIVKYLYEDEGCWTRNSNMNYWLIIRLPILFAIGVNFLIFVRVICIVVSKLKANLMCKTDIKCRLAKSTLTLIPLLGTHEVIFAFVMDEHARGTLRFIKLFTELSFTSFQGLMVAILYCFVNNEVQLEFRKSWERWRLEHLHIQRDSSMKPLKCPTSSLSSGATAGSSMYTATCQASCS
- METHOD: GLP-1R activation: cAMP increase in CHO cells stably expressing GLP-1R
- Format: cell-based
- PARTICULARS: EC50 (nM)
Recorded log10 of EC50 for the following compounds
A difference of one corresponds to tenfold EC50; all values are log10 with EC50 in nM.

Sample records with log10 of EC50:
COC[C@H](Cn1c(Cc2cc(F)c(-c3cccc(OCc4ccc(C#N)cc4F)n3)cc2F)nc2ccc(C(=O)O)cc21)OC [Example 620]	0.88
COCCn1c(Cc2ccc(-c3cccc(OCc4ccc(C#N)cc4F)n3)c(C)c2)nc2ccc(C(=O)O)cc21 [Example 21]	1.85
COC[C@@H](Cn1c(Cc2cc(F)c(-c3cccc(OCc4ccc(C#N)cc4F)n3)cc2F)nc2ccc(C(=O)O)cc21)OC [Example 621]	1.24
C[C@@H](O)Cn1c(Cc2cc(F)c(-c3cccc(OCc4ccc(C#N)cc4F)n3)cc2F)nc2ccc(C(=O)O)cc21 [Example 724]	1.18

Below: the item to evaluate.
Exam item: Write log10 of EC50 of COCCn1c(Cc2cc(F)c(-c3cccc(OCc4ccc(C#N)cc4F)n3)cc2F)nc2c(F)cc(C(=O)O)cc21 [Example 301] ; system used: GLP-1R (Homo sapiens, UniProt P43220)
Marked response: -0.14
